target: [Pyruvate dehydrogenase (acetyl-transferring)] kinase isozyme 1, mitochondrial (Homo sapiens); assay: Competitive binding affinity to recombinant N-terminal 6xHis-SUMO-tagged human PDK1 (29 to 436 residues) expressed in Escherichia coli BL-21 assessed as Kd of ADP at 50 uM by isothermal titration calorimetric method (Rvb = 4.27 uM)
Sequence (Q15118 whole entry, the tested form may be a part): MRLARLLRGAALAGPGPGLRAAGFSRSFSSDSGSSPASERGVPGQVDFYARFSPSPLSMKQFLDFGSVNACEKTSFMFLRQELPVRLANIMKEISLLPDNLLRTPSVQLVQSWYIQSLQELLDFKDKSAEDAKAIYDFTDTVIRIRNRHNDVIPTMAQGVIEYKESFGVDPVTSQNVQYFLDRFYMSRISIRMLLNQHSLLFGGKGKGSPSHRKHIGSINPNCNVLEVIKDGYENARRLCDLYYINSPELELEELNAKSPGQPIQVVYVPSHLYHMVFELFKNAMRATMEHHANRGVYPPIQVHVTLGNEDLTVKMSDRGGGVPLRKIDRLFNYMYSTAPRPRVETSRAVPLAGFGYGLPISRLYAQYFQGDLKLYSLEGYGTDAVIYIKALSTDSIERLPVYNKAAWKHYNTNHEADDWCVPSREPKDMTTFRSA
measured.parameter: Kd (µM)
# output: bare number, implied unit µM

Answer with the recorded Kd of `O=C(Nc1ccc(Cl)c(C(F)(F)F)c1)C(Cl)Cl` only. 7.87
